melting point overview

Below are worked cases with known answers.
- CC(=O)NC[C@H]1CN(c2ccc(C(=O)c3cnc4cnccn34)cc2)C(=O)O1: 254 to 256 °C
- CC(=O)NC[C@H]1CN(c2ccc(C(=O)c3cnc4ccccn34)cc2)C(=O)O1: 218 to 220 °C
- CC(=O)NC[C@H]1CN(c2ccc(C(=O)c3cnc4c(OCc5ccccc5)cccn34)cc2)C(=O)O1: 193 to 195 °C
- CC(=O)NC[C@H]1CN(c2ccc(C(=O)c3cnc4ccc(Cl)cn34)cc2)C(=O)O1: 234 to 235 °C
- CC(=O)NC[C@H]1CN(c2ccc(C(=O)c3cnc4ccc([N+](=O)[O-])cn34)cc2)C(=O)O1: 223 to 225 °C
- CC(=O)NC[C@H]1CN(c2ccc(C(=O)c3cnc4c(O)cccn34)cc2)C(=O)O1: 253 to 255 °C (dec.)
- CC(=O)NC[C@H]1CN(c2ccc(C(=O)c3ccc[nH]3)cc2)C(=O)O1: 202 to 205 °C
- CC(=O)NC[C@H]1CN(c2ccc(C(=O)c3cnc4c5ccccc5ccn34)cc2)C(=O)O1: 239 to 240 °C
- CC(=O)NC[C@H]1CN(c2ccc(C(=O)c3cnc4ccc(F)cn34)cc2)C(=O)O1: 224 to 226 °C
- CC(=O)NC[C@H]1CN(c2ccc(C(=O)c3cnc4ccccn34)c(F)c2)C(=O)O1: 196 to 198 °C

We next turn to a different compound, shown below.
Input: # return recorded melting point for input CC(=O)NC[C@H]1CN(c2ccc(C(=O)c3cnc4nc(C)cc(C)n34)cc2)C(=O)O1
Output: 253 to 254 °C

---

Catalogue of melting point readings, one per entry.

* CC(=O)NC[C@H]1CN(c2ccc(C(=O)c3cnc4ccc(Br)cn34)cc2)C(=O)O1 | 230 to 232 °C
* CC(=O)NC[C@H]1CN(c2ccc(C(=O)c3ccc4ccc(C)cn34)cc2)C(=O)O1 | 237 to 239 °C
* CC(=O)NC[C@H]1CN(c2ccc(C(=O)c3cnc4cc(-c5ccccc5)ccn34)cc2)C(=O)O1 | 256 to 258 °C

Input: Answer with the recorded melting point for the compound listed here: CC(=O)NC[C@H]1CN(c2ccc(C(=O)c3cnc4c(Cl)cc(Cl)cn34)cc2)C(=O)O1
Output: 228 to 229 °C

Input: // fetch melting point given entry CC(=O)NC[C@H]1CN(c2ccc(C(=O)c3cnc4ccc(Cl)nn34)cc2)C(=O)O1
Output: 194 to 196 °C

Input: Output measured melting point for this item: CC(=O)NC[C@H]1CN(c2ccc(C(=O)c3ccc4cnc(C)cn34)cc2)C(=O)O1
Output: 248 to 250 °C

Input: Indicate its recorded melting point; the compound in question is COC(=O)c1cccn2c(C(=O)c3ccc(N4C[C@H](CNC(C)=O)OC4=O)cc3)cnc12
Output: 202 to 204 °C

Input: Kindly indicate its recorded melting point. Item: CC(=O)NC[C@H]1CN(c2ccc(C(=O)c3cnc4cc(C)ccn34)cc2)C(=O)O1
Output: 254 to 256 °C

---

Parameter melting point: see the listing below.

Example entries and their recorded answers appear below.
- CC(=O)NC[C@H]1CN(c2ccc(C(=O)c3cnc4c([N+](=O)[O-])cccn34)cc2)C(=O)O1 [Example 16]: 229 to 230 °C
- COC(=O)c1ccc2ncc(C(=O)c3ccc(N4C[C@H](CNC(C)=O)OC4=O)cc3)n2c1 [Example 24]: 231 to 233 °C
- CC(=O)NC[C@H]1CN(c2ccc(C(=O)c3cnc4c(Br)cc(C)cn34)cc2)C(=O)O1 [Example 19]: 221 to 223 °C
- CC(=O)NC[C@H]1CN(c2ccc(C(=O)c3cc(C#N)c4ccccn34)cc2)C(=O)O1 [Example 12]: 255 to 257 °C
- CC(=O)NC[C@H]1CN(c2ccc(C(=O)c3cnc4cnc(Br)cn34)cc2)C(=O)O1 [Example 43]: 216 to 220 °C

Now for a further compound.
Input: For the compound CC(=O)NC[C@H]1CN(c2ccc(C(=O)c3cnc4ncccn34)cc2)C(=O)O1 [Example 6] , report melting point.
Output: 257 to 260 °C

// provenance: patent US6362191B1
